assayOverview: inhibitors of TNFa-induced NFkB p65 translocation, primary screen, imaging, HUVEC, MLSMR starter and 10KST1 sets (AID 438);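 further: compound added about 3h40 before a 20 min TNFalpha stimulation; signal is the nuclear over cytoplasmic p65 intensity ratio per well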
measurementContext: HUVEC TNFa-induced p65 nuclear translocation; at 2 µM, stronger effect = higher value, 0% TNFa-plus-vehicle, 100% no-TNFa wells
readoutType: inhibition (%)
Reply with just the number (in %).

In the examples that follow, each entry is paired with its recorded inhibition.
molecule: COc1cccc(-c2nc(NC(C)C)c3ccccc3n2)c1O
measuredNumber: -2.3

molecule: Nc1ccc2[nH]ncc2c1
measuredNumber: 7.9

molecule: NC(=O)c1cc(-c2ccccc2)nc(Oc2ccccc2)n1
measuredNumber: -18.1

molecule: CC[N+](C)(CC)CCOC(=O)C(O)(c1ccccc1)C1CCCCC1 (configuration not stated)
measuredNumber: -3.8

molecule: CCN1CCN(c2cc3c(cc2F)c(=O)c(C(=O)O)cn3C2CC2)CC1
measuredNumber: 1.1

molecule: COC(=O)c1cc(OC)c(OC)cc1N
measuredNumber: -11.5

molecule: Cc1cc(/C=c2/sc3nc4ccccc4n3c2=O)c(C)n1-c1ccccn1
measuredNumber: -8.3

molecule: CCOP(=O)(c1ccccc1)C1(C#N)CCCC1 (configuration not stated)
measuredNumber: -9.6

Task: Answer with reported inhibition of `c1ccc(OCc2nn3c(-c4cccnc4)nnc3s2)cc1`
Output: -6.1

Task: Answer with reported inhibition of `CC(=Nc1ccc(C)c(C)c1)C1=C(O)CCC1=O`
Output: -14.9

Task: Answer with reported inhibition of `CC/C(=N\O)c1ccc(OC)c(OC)c1`
Output: -13.3

Task: Answer with reported inhibition of `CN(C)CCCN1c2ccccc2CCc2ccc(Cl)cc21`
Output: -7.8

Task: Answer with reported inhibition of COc1ccc(OC)c(C2/C(=C(/O)c3cnn(-c4ccccc4)c3C)C(=O)C(=O)N2CCN(C)C)c1 (configuration not stated)
Output: 1.9

Task: Answer with reported inhibition of CCCc1nn(C)c2c1C(c1cccnc1)C(C#N)=C(N)O2 (configuration not stated)
Output: -5.3

Task: Answer with reported inhibition of CC(C)OC(=O)C(C#N)c1nc2ccccc2nc1N1CCN(Cc2ccc3c(c2)OCO3)CC1 (configuration not stated)
Output: -4.7

Task: Answer with reported inhibition of `CCn1nc(C(=O)O)c(=O)c2cc3c(cc21)OCO3`
Output: -0.9
